- Tested on: BT-549 breast
- ASSAY COMMENT: NCI tumour cell line growth inhibition, 48 h; in the data active = GI50 below about 0.43 µM; inactive = the rest
Parameter call: string, one of Y (active), N (inactive)

Record excerpt, results attached:
# MOLECULE, ASSAYED TARGET, CLASS LABEL
measured = [
    ("C=C1C(=O)O[C@H]2[C@H]1CC/C(COC(=O)OCCCCCOC(=O)OC/C1=C/CC[C@@]3(C)O[C@H]3[C@H]3OC(=O)C(=C)[C@@H]3CC1)=C\\CC[C@@]1(C)O[C@@H]21", "BT-549 breast", "Y"),
    ("COc1ccc(-c2nc(-c3nc4ccc(F)cc4[nH]3)cc3c2[nH]c2ccccc23)cc1", "BT-549 breast", "N"),
    ("CCN(CC)c1ccc(NC(C(=O)c2ccccc2)c2ccccc2)cc1 (stereo not drawn)", "BT-549 breast", "N"),
    ("CC1(C)CCC(S(=O)(=O)c2ccc3c(c2)/C(=N\\O)c2cc(S(=O)(=O)N4CCC(O)(c5cccc(C(F)(F)F)c5)CC4)ccc2-3)CC1", "BT-549 breast", "Y"),
    ("COc1ccc2c(c1)C(=O)c1c-2c(NCCCN(C)C)nc2ccccc12", "BT-549 breast", "N"),
]

input: How did this test come out for ClCCN(CCCl)Cc1ccc(Nc2ccnc3cc(Cl)ccc23)cc1 ?
output: N

input: How did this test come out for O=C(c1ccccc1)c1ccc(-c2ccc(O)cc2)cc1 ?
output: N

input: How did this test come out for COc1ccc(/C=C2/CN(C(=O)c3ccccc3F)C/C(=C\c3ccc(OC)cc3)C2=O)cc1 ?
output: N

---

Recorded TGI values for a group of compounds are listed next.
- Tested on: SF-539 CNS
- ASSAY COMMENT: NCI tumour cell line growth inhibition, 48 h

Would you please look over these solved cases?
# COMPOUND, ASSAYED TARGET, MEAS VALUE
records = [
    ("COc1ccc(-c2cc(C(=O)Nc3cccc(C(F)(F)F)c3)[nH]c(=S)n2)cc1", "SF-539 CNS", "> 100 µM"),
    ("C=CC1CC12C(=O)C1OC2(C)C2C(=O)c3ccccc3C(=O)C12 (stereo unspecified)", "SF-539 CNS", "> 100 µM"),
    ("OCC(O)COc1ccc(Br)cc1 (stereo unspecified)", "SF-539 CNS", "> 100 µM"),
    ("Cc1c(/C=C2\\CC/C(=C\\c3[nH]c(C(=O)OC(C)(C)C)c(C)c3C)C2=O)[nH]c(C(=O)OC(C)(C)C)c1C", "SF-539 CNS", "> 100 µM"),
    ("CN(C(=O)C1CCCCC1)c1ccccc1I(=O)=O", "SF-539 CNS", "> 100 µM"),
]

Now, please, on to the next compound.
input: Give SF-539 CNS TGI for the following compound: On1c(-c2ccccc2)c(-c2c(-c3ccccc3)n(O)c3ccccc23)c2ccccc21
output: 58.8 µM

---

- Test system: KM12 colon
- ASSAY COMMENT: NCI tumour cell line growth inhibition, 48 h
EXPERIMENTAL READOUT: GI50

# COMPOUND, ASSAYED TARGET, MEAS VALUE
measured = [
    ("COc1ccc2c(c1)O/C(=C\\c1cccc(OCC(=O)Nc3nc4ccccc4s3)c1)C2=O", "KM12 colon", "9.61 µM"),
    ("O=C1c2ccn(CCCCN3CCOCC3)c2C(=O)c2c1c(O)c1ccccc1c2O", "KM12 colon", "5.21 µM"),
    ("Cc1ccc(NS(=O)(=O)c2ccc(-c3cnc(C4CC4)o3)cc2)cc1", "KM12 colon", "2.53 µM"),
]

input: Fill in reported GI50 for this entry: C=C1C(=O)O[C@H]2[C@H]1CC/C(COC(=O)OCCCCCOC(=O)OC/C1=C/CC[C@@]3(C)O[C@H]3[C@H]3OC(=O)C(=C)[C@@H]3CC1)=C\CC[C@@]1(C)O[C@@H]21
output: 1.51 µM

input: Fill in reported GI50 for this entry: COc1ccc2c(c1)C(=O)c1c-2c(NCCCN(C)C)nc2ccccc12
output: 2.05 µM

input: Fill in reported GI50 for this entry: CCOc1ccc(NC(=O)Nc2cc(C(C)C)ccc2C)cc1
output: 11.6 µM

input: Fill in reported GI50 for this entry: COc1ccc(C(CC(=O)c2ccccc2)C(C(=O)c2ccccc2)C(c2ccc(OC)cc2)C2C(=O)NC(=O)NC2=O)cc1 (stereo not drawn)
output: 19.1 µM

input: Fill in reported GI50 for this entry: [Cu+2].[Cu+2].[O-]c1ccccc1C=Nc1ccccc1[O-].[O-]c1ccccc1C=Nc1ccccc1[O-]
output: 10 µM

---

- Test system: NCI-H226 lung
- ASSAY COMMENT: NCI tumour cell line growth inhibition, 48 h
EXPERIMENTAL READOUT: GI50

input: Fill in reported GI50 for this entry: COCCNCC(O)Cn1c2ccc(Cl)cc2c2cc(Cl)ccc21 (centres undefined)
output: 2.25 µM

---

Recorded GI50 values for a group of compounds are listed next.
- Test system: HOP-62 NSCLC
- ASSAY COMMENT: NCI tumour cell line growth inhibition, 48 h

# COMPOUND, GI50
records = [
    ("Cc1ccc(S(=O)(=O)N(C)C)cc1[N+](=O)[O-]", "> 100 µM"),
]

input: Fill in reported GI50 for this entry: O=C1Nc2ccc(F)c3c(OCCO)cc(-c4ccc[nH]4)c1c23
output: 3.07 µM

input: Fill in reported GI50 for this entry: C[C@]12CC[C@H](O)CC1=CC[C@@H]1[C@@H]2CC[C@]2(C)C(=O)/C(=C/c3cccc(OCCCn4ccnc4)c3)C[C@@H]12
output: 20.4 µM

input: Fill in reported GI50 for this entry: COc1cc(-c2c3c(cn2S(=O)(=O)c2ccccc2)-c2nc(N)sc2CC3)cc(OC)c1OC
output: 2.05 µM

input: Fill in reported GI50 for this entry: COc1ccc(-c2cc3c4c(nc5ccccc5c4c2)CC(c2cc(OC)c(OC)c(OC)c2)O3)cc1 (stereo not given)
output: 2.98 µM

---

- System: MOLT-4 leukemia
- ASSAY COMMENT: NCI tumour cell line growth inhibition, 48 h; in the data active means GI50 below about 0.43 µM; inactive means the rest
Parameter call: string, one of label 1 for active, label 0 for inactive

Record excerpt, results attached:
# MOLECULE, CLASS LABEL
data = [
    ("CN(C(=O)c1ccc(F)cc1C(F)(F)F)C1CCN(c2nnc(-c3ccnn3C)c3ccccc23)CC1", "label 0"),
    ("OCC1SC(n2cnc3cncnc32)C(O)C1O (stereo not given)", "label 0"),
    ("O=C(CC12CC3CC(CC(C3)C1)C2)NCCOCCOCCNC(=O)c1cc2c(o1)C(=O)c1ccccc1C2=O", "label 0"),
    ("Cn1ncc2cc(-c3cnc(N)c(Cl)c3N3CCC4(CCNC4=O)CC3)ccc21", "label 0"),
    ("COc1ccccc1-c1cc2c3c(nc4ccccc42)C(=O)c2cccnc2-c3n1", "label 0"),
]

input: How did this test come out for COc1ccc2c(c1)O/C(=C\c1cccc(OCC(=O)Nc3nc4ccccc4s3)c1)C2=O ?
output: label 0

input: How did this test come out for COc1ccc2c(c1)C(=O)c1c-2c(NCCCN(C)C)nc2ccccc12 ?
output: label 0

input: How did this test come out for CC1(C)CCC(S(=O)(=O)c2ccc3c(c2)/C(=N\O)c2cc(S(=O)(=O)N4CCC(O)(c5cccc(C(F)(F)F)c5)CC4)ccc2-3)CC1 ?
output: label 1

input: How did this test come out for CC(=O)[CH-]C(=O)c1ccccc1.CC(=O)[CH-]C(=O)c1ccccc1.[Nd+3].[OH-].[OH3+] ?
output: label 0

input: How did this test come out for CCOc1ccc(NC(=O)Nc2cc(C(C)C)ccc2C)cc1 ?
output: label 0

---

- Test system: SK-MEL-5 melanoma
- ASSAY COMMENT: NCI tumour cell line growth inhibition, 48 h
EXPERIMENTAL READOUT: TGI (µM)
Write down the numeric answer in µM and omit the unit.

input: Fill in reported TGI for this entry: COc1ccc(-c2nc(-c3nc4ccc(F)cc4[nH]3)cc3c2[nH]c2ccccc23)cc1
output: 4.61

input: Fill in reported TGI for this entry: O=C(C=P(c1ccccc1)(c1ccccc1)c1ccccc1)C12CC3CC(CC(C3)C1)C2
output: 28.8

input: Fill in reported TGI for this entry: Cc1cc(N(CCCl)CCCl)ccc1C=Nc1cccnc1
output: 41.7

input: Fill in reported TGI for this entry: O=C(NNc1nc2cc(F)ccc2n2c(CN3CCOCC3)ccc12)c1ccccc1
output: 2.06

input: Fill in reported TGI for this entry: O=C(CC12CC3CC(CC(C3)C1)C2)NCCOCCOCCNC(=O)c1cc2c(o1)C(=O)c1ccccc1C2=O
output: 0.328

---

- Tested on: 786-0 renal
- ASSAY COMMENT: NCI tumour cell line growth inhibition, 48 h
Recorded GI50 values for a group of molecules are listed next.

# MOLECULE, MEAS VALUE
measured = [
    ("Cn1ncc2c(Nc3ccc(Br)cc3)nc(Nc3ccc(Br)cc3)nc21", "2.4 µM"),
    ("Nc1ccccc1C#C/C=C\\C#Cc1ccc(F)cc1F", "14.7 µM"),
    ("CCC(=O)Sc1ccccc1C(=O)Nc1ccc(Cl)cc1", "15 µM"),
    ("COc1ccc(-c2cc3c4c(nc5ccccc5c4c2)CC(c2cc(OC)c(OC)c(OC)c2)O3)cc1 (stereo unspecified)", "1.92 µM"),
    ("CN(C(=O)c1ccc(F)cc1C(F)(F)F)C1CCN(c2nnc(-c3ccnn3C)c3ccccc23)CC1", "> 100 µM"),
]

Now, please, on to the next molecule.
input: Give 786-0 renal GI50 for the following molecule: O=S(=O)(Nc1ccc(-c2nc(-c3cccc(OCCN4CCOCC4)c3)c(-c3ccnc(Br)c3)[nH]2)cc1)c1ccccc1
output: 2.37 µM

Value source: PubChem BioAssay (NCI)
